Attribution: patent US20080057529A1

System: clone 1.17 cells
PROCEDURE_SUMMARY: Growth inhibition, CYTOSTAR 14C-thymidine uptake
Format: cell-based
CONDITION: Homo sapiens, 48 h, read-out: ^14C-thymidine EC50
READOUT: EC50 (nM)

INSERT INTO results (molecule_smiles, recorded_number) VALUES
  ('CCC(=O)CCCCC[C@@H]1NC(=O)[C@H]2CCCCN2C(=O)[C@H]([C@@H](C)CC)NC(=O)[C@H](Cc2cn(OC)c3ccccc23)NC1=O', 410);

###

SYSTEM_TESTED: p21 minimal promoter
PROCEDURE_SUMMARY: Fluorometric β-lactamase activity assay in stable HeLa clone 1.17 (p21m-BLA)
Assay type: cell-based, human
CONDITION: clone 1.17, about 13 hours treatment; means of 3 to 4 independent experiments; read-out: p21m-Bla EC50
pEC50: −log10 of the molar value.
READOUT: pEC50

INSERT INTO assay_data (molecule, readout, recorded_number) VALUES
  ('Nc1ccccc1NC(=O)c1ccc(CNC(=O)OCc2cccnc2)cc1 [MS27-275]', 'pEC50', 4.92),
  ('CC(/C=C/C(=O)NO)=C\[C@@H](C)C(=O)c1ccc(N(C)C)cc1 [TSA, Trichostatin A]', 'pEC50', 7.05);
